Recorded pKd for the following compounds
biological target: Kelch domain of human KEAP1 (321-624 aa) (Homo sapiens (Human))
pKd: −log10 of the molar value.

[
  {
    "compound": "Cc1ccc([C@@H](CC(=O)O)c2ccn3c(C(F)(F)F)nnc3c2C)cc1CN1C[C@@H]2CN(C)CCN2c2ncccc2S1(=O)=O (single isomer, unassigned)",
    "pKd": 7.24
  },
  {
    "compound": "Cc1ccc([C@@H](c2ccn3c(C(F)(F)F)nnc3c2C)C(C)(C)C(=O)O)cc1CN1CC2(CCOCC2)Oc2nc(OCCN3CCOCC3)ccc2S1(=O)=O (single isomer, unassigned)",
    "pKd": "> 9.00"
  },
  {
    "compound": "Cc1cnc2c(c1)S(=O)(=O)N(Cc1cc([C@H](c3ccc4c(nnn4C4CC4)c3C)C(C)(C)C(=O)O)ccc1C)CC1(CNC1)O2 (single isomer, unassigned)",
    "pKd": "> 9.00"
  },
  {
    "compound": "Cc1ccc([C@@H](CC(=O)O)c2ccn3c(C(F)F)nnc3c2C)cc1CN1C[C@@H]2COCCN2c2ncccc2S1(=O)=O (single isomer, unassigned)",
    "pKd": 8.92
  },
  {
    "compound": "Cc1ccc([C@H](CC(=O)O)c2ccn3c(C(F)F)nnc3c2C)cc1CN1CC2(CCOCC2)Oc2ncc(F)cc2S1(=O)=O (single isomer, unassigned)",
    "pKd": "> 9.00"
  },
  {
    "compound": "Cc1ccc(C(CC(=O)O)c2ccc3c(nnn3CC3CC3)c2C)cc1CN1CC2(COC2)Oc2ncccc2S1(=O)=O (stereo not drawn)",
    "pKd": 9.47
  },
  {
    "compound": "Cc1ccc([C@@H](CC(=O)O)c2ccn3c(C(F)F)nnc3c2C)cc1CN1C[C@H]2CCCN2c2ncc(C#N)cc2S1(=O)=O (single isomer, unassigned)",
    "pKd": "> 9.00"
  },
  {
    "compound": "Cc1cnc([C@@H](c2ccn3c(C(F)F)nnc3c2C)C(C)(C)C(=O)O)cc1CN1CC2(CCOCC2)Oc2nc(OCCN3CCCCC3)c(C)cc2S1(=O)=O (single isomer, unassigned)",
    "pKd": "> 9.00"
  },
  {
    "compound": "Cc1ccc(C(CC(=O)O)c2ccn3c(C(F)F)nnc3c2C)cc1CN1C[C@]2(C)CCCN2c2ncccc2S1(=O)=O (stereo in doubt)",
    "pKd": "> 9.00"
  }
]

====

target: Kelch domain of human KEAP1 (321-624 aa) (Homo sapiens (Human), UniProt Q14145); experiment: KEAP1 KELCH ThermoFluor binding assay; conditions: KEAP Kelch […], 1,8-ANS, pH 7.0, average of results obtained, read-out: Tf Kd;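 also: Ligand-induced melting temperature shift of E. coli-expressed KEAP1 Kelch protein, Kd estimated from concentration-response curves of ΔTm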
Sequence (Q14145 321-624): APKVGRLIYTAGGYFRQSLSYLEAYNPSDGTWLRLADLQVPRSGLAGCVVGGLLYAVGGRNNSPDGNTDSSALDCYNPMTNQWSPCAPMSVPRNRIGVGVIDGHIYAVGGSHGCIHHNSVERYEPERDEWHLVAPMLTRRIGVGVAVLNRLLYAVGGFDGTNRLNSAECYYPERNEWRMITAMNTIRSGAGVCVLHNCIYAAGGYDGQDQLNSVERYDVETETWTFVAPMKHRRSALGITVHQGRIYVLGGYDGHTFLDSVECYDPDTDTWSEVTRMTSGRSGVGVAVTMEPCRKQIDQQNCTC
pKd: −log10 of the molar value.

[
  {
    "compound": "Cc1ccc([C@H](CC(=O)O)c2ccn3c(C(F)(F)F)nnc3c2C)nc1CN1CC2(CC2)Oc2ncc(F)cc2S1(=O)=O (single isomer, unassigned) [Example 510]",
    "op": ">",
    "pKd": 9.00
  },
  {
    "compound": "Cc1cnc2c(c1)S(=O)(=O)N(Cc1cc([C@@H](c3cc4cc(C)nnc4n3C)C(C)(C)C(=O)O)ccc1C)CC1(CC1)O2 (single isomer, unassigned) [Example 330]",
    "op": "=",
    "pKd": 5.80
  },
  {
    "compound": "CCc1nnc2c(C)c([C@H](CC(=O)O)c3ccc(C)c(CN4C[C@H]5CCCN5c5ccccc5S4(=O)=O)c3)ccn12 (single isomer, unassigned) [Example 280]",
    "op": ">",
    "pKd": 9.00
  },
  {
    "compound": "Cc1cnc2c(c1)S(=O)(=O)N(Cc1cc([C@@H](c3ccn4c(C(F)(F)F)nnc4c3C)C(C)(C)C(=O)O)ccc1C)C[C@]1(CCOC1)O2 (single isomer, unassigned) [Example 383]",
    "op": ">",
    "pKd": 9.00
  },
  {
    "compound": "Cc1cnc2c(c1)S(=O)(=O)N(Cc1cc([C@H](c3ccc4c(nnn4C4CC4)c3C)C(C)(C)C(=O)O)cnc1C)CC1(CC1)O2 (single isomer, unassigned) [Example 396]",
    "op": "=",
    "pKd": 4.66
  },
  {
    "compound": "Cc1ccc([C@@H](CC(N)=O)c2ccn3c(C(F)(F)F)nnc3c2C)cc1CN1C[C@@H]2CCCCN2c2ncccc2S1(=O)=O (single isomer, unassigned) [Example 549]",
    "op": "=",
    "pKd": 4.07
  },
  {
    "compound": "Cc1cnc2c(c1)S(=O)(=O)N(Cc1cc([C@@H](c3ccn4c(C(F)F)nnc4c3C)C(C)(C)C(=O)O)ncc1C)CC1(CC1)O2 (single isomer, unassigned) [Example 332]",
    "op": ">",
    "pKd": 9.00
  },
  {
    "compound": "CCn1nnc2c(C)c([C@@H](CC(=O)O)c3ccc(C)c(CN4C[C@@H]5CCCCN5c5ncccc5S4(=O)=O)n3)ccc21 (single isomer, unassigned) [Example 303]",
    "op": ">",
    "pKd": 9.00
  },
  {
    "compound": "Cc1cnc2c(c1)S(=O)(=O)N(Cc1nc([C@@H](c3ccn4c(C(F)F)nnc4c3C)C(C)(C)C(=O)O)ccc1C)CC1(CNC1)O2 (single isomer, unassigned) [Example 632]",
    "op": "=",
    "pKd": 4.67
  }
]
